Origin of the recorded values: patent US20240067748A1

Target: T1, mouse Trop2-his protein (Sino Biological, #50922-M08H) (mouse, UniProt Q8BGV3 25-270)
T1 construct: bought protein; also called mouse Trop2 protein; not shown: his tag
T1 sequence (looked up): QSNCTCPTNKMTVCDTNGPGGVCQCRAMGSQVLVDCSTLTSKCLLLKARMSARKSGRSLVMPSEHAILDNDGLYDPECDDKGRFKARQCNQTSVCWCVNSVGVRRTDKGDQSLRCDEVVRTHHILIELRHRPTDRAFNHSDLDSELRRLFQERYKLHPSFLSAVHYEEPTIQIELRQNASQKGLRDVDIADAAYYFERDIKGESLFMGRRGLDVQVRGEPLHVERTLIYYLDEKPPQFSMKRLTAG
Experiment: ELISA, plate coated with mouse Trop2-his protein, anti-human IgG (H+L)-HRP, OD450 nm

BINDER	binding result
PR001142 (antibody, human IgG1, kappa, V domains shown, fully human IgG1/kappa; also called antibody No. (9)) VH: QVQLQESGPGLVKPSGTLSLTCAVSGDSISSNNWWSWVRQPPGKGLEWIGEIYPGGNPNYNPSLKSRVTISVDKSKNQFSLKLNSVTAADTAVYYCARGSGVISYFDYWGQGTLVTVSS VL: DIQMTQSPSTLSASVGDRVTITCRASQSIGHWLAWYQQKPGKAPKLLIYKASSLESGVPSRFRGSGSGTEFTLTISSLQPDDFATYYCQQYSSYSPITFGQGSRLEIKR	no binding
PR001162 (antibody, human IgG1, kappa, V domains shown, fully human IgG1/kappa; also called antibody No. (23)) VH: QVQLVESGGGVVQPGTSLRLSCVASGFTFSNDGMHWVRQAPGMGLEWVAIMWFDGGSKYYADSVKGRFTISRDNSKNTLYLQMNNLRAEDTAVYYCARDHPHYLGSGSFDYWGQGTLVTVSS VL: EIVLTQSPATLSLSPGERATLSCRASQSVSSYLAWYQQKPGQAPRLLIYDASNRATGIPARFSGSGSGTDFTLTISSLQAEDVAVYYCQQYYSTPYTFGQGTKLEIKR	no binding
PR001128 (antibody, human IgG1, kappa, V domains shown, fully human IgG1/kappa; also called antibody No. (1)) VH: QVQLQESGPGLVKPSGTLSLTCAVSGGSISSSNWWSWVRQPPGKGLEWIGEIFHSGTTYYNPSLKSRVTILVDKSKNQFSLKLSSVTAADTAVYYCARDNTKSWDHFDHWGQGTLVTVSS VL: EIVLTQSPATLSLSPGERATLSCRASQSVGSYLAWYQQKPGQAPSLLIYDASNRATGIPARFSGSGSGTDFTLTISSLEPEDFAVYYCQQRTNWYTFGQGTKLEIKR	no binding
